Could you please report measured EC50 for the items listed next?
biological target: SARS-CoV-2 RBD (SARS-CoV-2, UniProt P0DTC2); experiment: ELISA
Dear colleague, please send the value followed by its unit.

QUERY: Please report the recorded EC50 for C123 (antibody, V domains shown) VH: EVQLVESGGGLIQPGGSLRLSCAASGVTVSRNYMSWVRQAPGKGLEWVSVIYSGGSTYYADSVKGRFTISRDNSKNTLYLQMNSLRAEDTAVYYCARDLSAAFDIWGQGTMVTVSS VL: DIQLTQSPSFLSASVGDRVTITCRASQGISSYLAWYQQKPGKAPKLLIYAASTLQSGVPSRFSGSGSGTEFTLTISSLQPEDFATYYCQQLNSYPPAFGQGTRLEIK .
RESULT: 1.92 ng/mL

Consider the additional binder presented here.
QUERY: Please report the recorded EC50 for C124 (antibody, V domains shown) VH: EVQLVESGGGLVQPGGSLRLSCAASGFTFSGYSMNWVRQAPGKGPEWVSYISRSSSTIYYADSVKGRFTISRDNAKNSLYLQMNSLRDEDTAVYYCAREGARVGATYDTYYFDYWGQGTLVTVSS VL: EIVLTQSPATLSLSPGERATLSCRASQSFSSYLAWYQQKPGQAPRLLIYDASNRATGIPARFSGSGSGTDFTLTISSLEPEDFAVYYCQQRNNWPPEWTFGQGTKVEIK .
RESULT: 2.23 ng/mL
